# Tested on: UO-31 renal
# PROTOCOL_TEXT: NCI tumour cell line growth inhibition, 48 h; in the data active means GI50 below about 0.43 µM; inactive means the rest
Outcome (select one): active, inactive

Solved cases below.
In [3]: df
Out[3]:
                                   compound  class_label
0               Nc1nc(SCC#CCCl)c2[nH]cnc2n1     inactive
1  COc1cc(OC)c(/C=C/S(=O)(=O)Cc2ccc(OC)c(N)n2)c(OC)c1       active
2  CCOC(=O)c1c(CN2CCCCC2)nc2ccc(Cl)cc2c1-c1ccccc1     inactive
3  c1c2c(cc3c1OCO3)-c1ncc3cc4c(cc3c1C2)OCO4     inactive
4  OC[C@H]1C[C@](O)(c2ccccc2Cl)[C@@H](c2ccccc2Cl)O1     inactive

Could you now consider this next compound?
QUERY: // param item: COc1cc(/C=N/NC(=O)c2cnn3c2NC(c2ccccc2)C3)ccc1OCc1ccccc1 (stereo unspecified) ; yields the recorded call
RESULT: inactive

* * *

# Tested on: DU-145 prostate
# PROTOCOL_TEXT: NCI tumour cell line growth inhibition, 48 h
MEASUREMENT_LABEL: TGI

A selection of reference data follows.
MOLECULE	TESTED_ON	TGI
CCN(CC)C(=O)N[C@@H](CC(C)C)C(=O)NC	DU-145 prostate	> 100 µM
COc1cc(/C=N/NC(=O)c2cnn3c2NC(c2ccccc2)C3)ccc1OCc1ccccc1 (centres undefined)	DU-145 prostate	6.4 µM
Cc1cc2nc3c(N)nn(CCCN(C)C)c3nc2cc1C	DU-145 prostate	> 100 µM
CC(=O)CC(O)(C(F)(F)Cl)C(F)(Cl)Cl (centres undefined)	DU-145 prostate	> 10 µM
C1CCC(CC2CCC(NC3=NCCO3)CC2)CC1 (centres undefined)	DU-145 prostate	94.9 µM
O=C1c2ccccc2CC12Cc1ccc3c(c1C2=O)CCCC3 (centres undefined)	DU-145 prostate	> 100 µM
C=CCCCCCCCCCOC1C=CC(O)C(CO)O1 (centres undefined)	DU-145 prostate	> 100 µM
O=C(NCC(O)COc1ccccc1)c1ccccc1O (centres undefined)	DU-145 prostate	> 100 µM
CCOc1c2c(cc3c1C(=O)c1c(OC)cccc1C3=O)C=C(OC)CC2	DU-145 prostate	> 25 µM
O=C(/C=C/c1ccco1)Nc1ncc(Cc2cc(Cl)ccc2Cl)s1	DU-145 prostate	> 41.6 µM

Go through the list and state TGI for each entry.
1. CCCCCCCCCC(=O)Oc1ccc(/C(=C(/C)c2ccccc2)c2ccc(OCCN3CCCC3)cc2)cc1
2. C=C(C)[C@@H]1CC[C@]2(C(=O)O)CC[C@]3(C)[C@H](CC[C@@H]4[C@@]5(C)CCC(N)C(C)(C)[C@@H]5CC[C@]43C)[C@@H]12 (some centres undefined)
3. O=C(O)c1ccccc1Sc1ccc(C=C2NC(=S)N(c3ccccc3)C2=O)s1

RESULT:
14.8 µM
> 100 µM
> 100 µM

The value of TGI measured for the molecule `O=[N+]([O-])c1ccc(CSC2=C(c3ccc(Cl)cc3)S/C(=C3\SC(SCc4ccc([N+](=O)[O-])cc4)=C(c4ccc(Cl)cc4)S3)S2)cc1` turned out to be > 100 µM

* * *

For each record, write down the corresponding TGI.
# Tested on: LXFL 529 NSCLC
# PROTOCOL_TEXT: NCI tumour cell line growth inhibition, 48 h
Answers are plain numbers, in µM.

>>> df
                                smiles_code       tested_on  value
0  CC(=O)[CH-]C(=O)c1ccccc1.CC(=O)[CH-]C(=O)c1ccccc1.Cl.[O-]CCc1ccccn1.[O-]CCc1ccccn1.[Ti+4]  LXFL 529 NSCLC     38

Query compound follows.
# TGI of `Cc1c(CCCl)c(Cl)n2c(nc3ccccc32)c1C#N` = 1.63

* * *

# System: SF-268 CNS
# PROTOCOL_TEXT: NCI tumour cell line growth inhibition, 48 h; in the data active = GI50 below about 0.43 µM; inactive = the rest
Form entry, call: pick from active, inactive

Look over these answered cases.
>>> print(df.to_string())
                                smiles_code  class_label
0  COc1ccc(/C=C\c2cc(OC)c(OC)c(OC)c2)cc1NC(=O)/C=C/c1cc(OC)c(OC)c(OC)c1     inactive
1  OC[C@H]1C[C@](O)(c2ccccc2Cl)[C@@H](c2ccccc2Cl)O1     inactive
2  Cc1cnc(C(=O)Nc2nc3ccc(S(=O)(=O)Nc4ccc(C(C)(C)C)cc4)cc3[nH]2)cn1     inactive

Please examine the following record next.
QUERY: Per the records of this test, what outcome belongs to `COc1cc2c3c(c4cc(OC)c(OC)cc4c2cc1OC)CN1CCC[C@H]1C3` ?
RESULT: active

* * *

# System: HCT-15 colon
# PROTOCOL_TEXT: NCI tumour cell line growth inhibition, 48 h
MEASUREMENT_LABEL: TGI

>>> print(df.to_string())
                                   compound      value
0  CCN(CC)C(=O)Cc1[nH][nH]c(=O)c1C(=O)N(CC)CC   > 100 µM
1  CO[C@H]1C[C@H](O[C@H]2CC[C@@]3(C)[C@H](CC[C@@H]4[C@@H]3CC[C@]3(C)[C@@H](C5=CC(=O)OC5)CC[C@]43O)C2)O[C@H](C)[C@H]1O  0.0164 µM
2  Nc1nc(N)c(CCCCc2ccc([N+](=O)[O-])cc2)c(N)n1   > 100 µM
3         Cc1ccc(C)c(N2CCN(c3ccncc3N)CC2)c1   > 100 µM
4  COc1cc([C@H]2OC[C@@H]3C(c4cc(OC)c5c(c4)OCO5)OC[C@H]23)cc(OC)c1OC (some centres undefined)   > 100 µM

Would you be so kind as to report TGI for each listed record?
1. C/C(=C\COP(=O)(O)OP(=O)(O)O)CC/C=C(\C)CNc1c(F)c(F)c(F)c(F)c1F
2. CC(C)=CC(=O)c1[nH]c2ccccc2c1CC(=O)NCCc1cnc[nH]1
3. NC1=Nc2ncccc2C(=O)NN1
4. C=C1C(C)C2C(Cc3ccccc3)NC(=O)C23C(OC(C)=O)C=CC(C)(O)C(=O)C(C)C/C=C/C3C1O (centres undefined)

RESULT:
> 100 µM
> 100 µM
> 10 µM
> 500 µM

* * *

# Test system: DLD-1 colon
# PROTOCOL_TEXT: NCI tumour cell line growth inhibition, 48 h
Would you mind telling me the reported TGI of each entry?

Look over these answered cases.
In [3]: df
Out[3]:
                                   compound  measurement_label     value
0    C(=C\c1ccc2ccccc2c1Nc1ccccc1)/c1ccccc1                TGI  > 100 µM
1  Cc1cc2c3ccccc3n3c2c2c1OC1(C)CCC(C2C1)C3(C)C (stereo not given)                TGI   > 25 µM
2  O=C1OCc2nc3c(c(-c4ccccc4C(F)(F)F)c21)C(=O)OC3                TGI  > 100 µM
3  COC(=O)CC(=O)OC1C[C@@H]2CCC3C(C)(C)CCC[C@]3(C)C23CC[C@@]1(C)C3 (stereo not given in full)                TGI   34.2 µM
4  CC(=O)OC1COC(N2C(=O)C(=O)c3ccccc32)C(OC(C)=O)C1OC(C)=O (stereo not given)                TGI  > 100 µM

List the reported TGI of each compound below.
1. Cc1ccccc1NC(=O)C(=O)C(C(=O)c1ccccc1F)C1OC(=O)c2ccccc21 (stereo not given)
2. O=C1N(c2ccc(Cl)cc2)C(=O)C2(SC=NN2Cc2ccccc2)N1c1ccc(Cl)cc1 (stereo not given)

RESULT:
["57.7 µM", "> 100 µM"]

* * *

# System: HCT-116 colon
# PROTOCOL_TEXT: NCI tumour cell line growth inhibition, 48 h; in the data active means GI50 below about 0.43 µM; inactive means the rest
# output must be one of yes for active, no for inactive

Worked examples follow.
COMPOUND	CLASS_LABEL
COc1ccc(/C(=C(\c2ccccc2)[N+](=O)[O-])c2ccc(OCCN3CCCC3)cc2)cc1	no
COc1cc(/C=N/NC(=O)c2cnn3c2NC(c2ccccc2)C3)ccc1OCc1ccccc1 (centres undefined)	no

QUERY: How did this test come out for `OC[C@H]1C[C@](O)(c2ccccc2Cl)[C@@H](c2ccccc2Cl)O1` ?
RESULT: no

QUERY: What did the test return for `O=C(NCCN1CCOCC1)c1cc2c(Oc3ccc(NC(=O)C4(C(=O)Nc5ccc(F)cc5)CC4)cc3)ccnc2[nH]1` ?
RESULT: no

* * *

For each entry below, report its TGI value.
# Tested on: SK-MEL-28 melanoma
# PROTOCOL_TEXT: NCI tumour cell line growth inhibition, 48 h
Give bare numbers, in µM.

Guide cases for TGI, answers given:
                                   molecule  value
0     COc1ccc2c(Cl)cc(NC(=S)Nc3ccccc3)nc2c1   97.9
1  N#Cc1cnn(C(=O)c2nn(-c3ccc(Cl)cc3)cc2O)c1N   27.3

List TGI for every entry below, keeping the order given.
1. CC(NC(CC12CC3CC(CC(C3)C1)C2)C(N)=O)c1ccccc1 (stereo not given)
2. CC1=C(C(=S)Nc2ccc(Cl)c(C(=O)OC(C)C)c2)SCCO1
3. O=C1N[C@@H]([C@H]2CC[C@H](Cl)CN2)C(=O)N[C@H]1[C@H]1CC[C@H](Cl)CN1

RESULT:
[40.4, 35.4, 31.1]
